Parameter: pIC50. Scope: all listed entries.
Tgt: human mGluR5 (Homo sapiens)
Sequence (P41594 21-1212): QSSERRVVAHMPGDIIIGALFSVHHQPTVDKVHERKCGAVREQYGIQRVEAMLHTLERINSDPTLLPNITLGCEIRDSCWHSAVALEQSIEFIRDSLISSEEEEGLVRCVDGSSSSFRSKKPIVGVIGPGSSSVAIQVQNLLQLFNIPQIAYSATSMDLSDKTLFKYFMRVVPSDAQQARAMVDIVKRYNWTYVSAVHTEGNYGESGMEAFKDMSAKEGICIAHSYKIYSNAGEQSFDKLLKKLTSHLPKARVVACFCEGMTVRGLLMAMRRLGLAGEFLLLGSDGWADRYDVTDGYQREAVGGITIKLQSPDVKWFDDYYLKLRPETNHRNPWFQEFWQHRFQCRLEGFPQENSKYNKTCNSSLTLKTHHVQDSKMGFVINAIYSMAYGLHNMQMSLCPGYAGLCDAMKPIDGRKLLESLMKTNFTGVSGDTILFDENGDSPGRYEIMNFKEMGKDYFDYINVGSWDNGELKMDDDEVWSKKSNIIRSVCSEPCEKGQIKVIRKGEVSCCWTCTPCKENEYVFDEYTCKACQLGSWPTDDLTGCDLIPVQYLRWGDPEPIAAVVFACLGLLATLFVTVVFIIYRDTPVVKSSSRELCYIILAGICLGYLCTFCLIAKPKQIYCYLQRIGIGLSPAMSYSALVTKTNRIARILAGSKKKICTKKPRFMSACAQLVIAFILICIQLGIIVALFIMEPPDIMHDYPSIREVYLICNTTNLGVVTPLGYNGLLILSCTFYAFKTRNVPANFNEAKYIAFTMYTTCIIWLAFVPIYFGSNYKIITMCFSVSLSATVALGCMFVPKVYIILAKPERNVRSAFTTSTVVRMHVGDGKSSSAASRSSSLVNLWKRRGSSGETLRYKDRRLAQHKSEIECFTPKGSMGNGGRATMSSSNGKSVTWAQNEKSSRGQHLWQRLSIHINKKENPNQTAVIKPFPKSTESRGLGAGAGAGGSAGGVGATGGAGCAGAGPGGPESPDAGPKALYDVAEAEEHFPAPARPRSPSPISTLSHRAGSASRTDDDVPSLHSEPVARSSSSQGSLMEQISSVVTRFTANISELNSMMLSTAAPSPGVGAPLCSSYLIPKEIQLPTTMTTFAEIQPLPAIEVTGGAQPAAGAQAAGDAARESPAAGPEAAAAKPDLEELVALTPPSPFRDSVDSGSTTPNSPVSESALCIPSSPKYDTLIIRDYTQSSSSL
Protocol Details: Experiment for receptor function of mGluR5 (Ca2+-dependent fluorescence, FLIPR, CHO-K1 cells stably expressing human mGluR5)
Experimental Parameters: L-glutamic acid 10 μM, Fluo-4 fluorescence
Where a name gives a salt, the structure may show the parent alone.
Units for pIC50: none; it is -log10 of a concentration expressed in mol/L.

The examples below pair each entry with its known result.
O=[N+]([O-])c1cccc(-c2cc(OCc3ccccn3)nc3c2CCC3)c1 [Example 63]; 7.22
c1cncc(-c2cc(OCc3nccs3)nc3c2CCCC3)c1 [Example 94, hydrochloride]; 7.12

Task: Which pIC50 reading was recorded for the molecule c1cncc(-c2cc(OCc3ncco3)nc3c2CCCC3)c1 [Example 91] ?
Output: 7.77
